Catalogue of molecules with associated AC50
# systemName: Gamma-aminobutyric acid receptor subunit alpha-1 (Rattus norvegicus); further: assay procedure not described here
# Sequence (P62813 whole entry): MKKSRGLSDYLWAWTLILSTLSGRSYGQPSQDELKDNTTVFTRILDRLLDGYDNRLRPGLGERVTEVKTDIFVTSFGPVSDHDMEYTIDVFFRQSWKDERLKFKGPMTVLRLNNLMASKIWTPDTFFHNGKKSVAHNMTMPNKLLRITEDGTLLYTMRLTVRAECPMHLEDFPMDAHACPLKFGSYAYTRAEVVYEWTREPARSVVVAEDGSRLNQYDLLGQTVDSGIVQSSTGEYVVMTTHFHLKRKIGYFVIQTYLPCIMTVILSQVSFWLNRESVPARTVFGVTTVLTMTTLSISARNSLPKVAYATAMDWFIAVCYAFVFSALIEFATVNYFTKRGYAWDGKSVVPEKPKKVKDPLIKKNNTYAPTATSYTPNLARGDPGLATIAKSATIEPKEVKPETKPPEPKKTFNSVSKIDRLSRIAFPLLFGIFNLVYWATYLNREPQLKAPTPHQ
# Assay type: functional
Where a SMILES comes first, the peptide text is derived from it. [ ]: non-standard residue; d: D form. pGlu = O=C1CC[C@@H](C(=O)O)N1; Thz = O=C(O)[C@@H]1CSCN1
readoutType: AC50

# molecule, recordedMeasurement
data = [
    ("CC1(C)S[C@@H]2[C@H](NC(=O)C(C(=O)O)c3ccccc3)C(=O)N2[C@H]1C(=O)O (some centres undefined) [CARBENICILLIN]", "> 30 µM"),
    ("C[N+](C)(C)CCOP(=O)(O)OP(=O)([O-])OC[C@H]1O[C@@H](n2ccc(N)nc2=O)[C@H](O)[C@@H]1O [CITICOLINE]", "> 30 µM"),
    ("CCc1nc(N)nc(N)c1-c1ccc(Cl)cc1 [PYRIMETHAMINE]", "> 10 µM"),
    ("O=C1CC[C@@H](C(=O)N2CSC[C@H]2C(=O)O)N1 [PIDOTIMOD] ([pGlu]-[Thz]-OH)", "> 30 µM"),
]

Taken from ChEMBL document CHEMBL5291721.
